The entries below are paired with their reported z-score.
- Method notes: yeast growth modulation, basal conditions, primary screen, YJM789 clinical isolate, OD600, 24 h (AID 1089);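 note: growth of clinical yeast isolate S. cerevisiae YJM 789 seeded 1000 cells per well; test concentration not given here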
- Condition context: S. cerevisiae YJM789 growth, higher = more signal, called active from +8 up or from −8 down
Reply briefly: the number, and no unit.

INSERT INTO results (compound, property_measured, measurement) VALUES
  ('C=CCOC(=O)[C@@H]1[C@H]2C(=O)O[C@H](c3ccccc3)[C@H](c3ccccc3)N2[C@H](c2ccc(OCCOC(=O)[C@H]3C[C@H]4C(=O)N[C@@H](CCCC[N+](C)(C)C)C(=O)N4[C@H]3c3ccc(O)cc3)cc2)[C@@]12C(=O)Nc1ccc(I)cc12', 'z-score', 1.86),
  ('COCCOC(=O)N1C(=O)[C@@]2(c3cc(C#Cc4ccc(OC)cc4)ccc31)[C@H](C(=O)NC[C@H](O)c1ccccc1)[C@H]1C(=O)O[C@H](c3ccccc3)[C@H](c3ccccc3)N1[C@@H]2c1ccc(O)cc1', 'z-score', 0.254);

# input for lookup
Check the records and state z-score for CC(C)CCC[C@@H](C)[C@H]1CC[C@@]2(C)C3=C(CC[C@]12C)[C@@]1(C)CC[C@H](OC(=O)c2ccc(Br)cc2)C(C)(C)C1CC3 (stereo partly drawn) -1.15

----------
- Measured target: Dihydroorotate dehydrogenase (quinone), mitochondrial (Plasmodium falciparum (isolate 3D7)) (UniProt Q08210)
- Sequence (Q08210 whole entry, looked up): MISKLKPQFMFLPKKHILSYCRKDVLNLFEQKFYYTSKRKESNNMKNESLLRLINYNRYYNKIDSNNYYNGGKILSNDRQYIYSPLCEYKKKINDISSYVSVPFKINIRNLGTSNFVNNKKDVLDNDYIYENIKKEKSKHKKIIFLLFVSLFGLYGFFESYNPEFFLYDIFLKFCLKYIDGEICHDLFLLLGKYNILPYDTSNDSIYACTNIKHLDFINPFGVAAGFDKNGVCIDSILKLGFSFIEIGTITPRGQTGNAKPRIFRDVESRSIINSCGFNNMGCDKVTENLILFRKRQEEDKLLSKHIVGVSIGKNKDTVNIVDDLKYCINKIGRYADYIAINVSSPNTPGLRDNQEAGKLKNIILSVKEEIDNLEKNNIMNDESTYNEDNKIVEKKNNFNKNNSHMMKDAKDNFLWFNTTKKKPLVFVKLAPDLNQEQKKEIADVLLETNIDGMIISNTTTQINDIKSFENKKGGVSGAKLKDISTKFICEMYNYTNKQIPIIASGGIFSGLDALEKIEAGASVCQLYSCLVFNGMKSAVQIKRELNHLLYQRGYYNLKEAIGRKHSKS
- Method notes: PfDHODH enzyme inhibitors, primary screen, biochemical, C-terminal His tag, absorbance 600 nm (AID 1175);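 note: recombinant parasite enzyme with a five histidine tag at its C terminus; test concentration not given here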
- Condition context: DCIP absorbance 600 nm, higher = more signal, called active from +8 up or from −8 down
Active and inactive are the calls of the source.
The entries below are paired with their reported composite z-score.

Record excerpt, results attached:
INSERT INTO measurements (structure_smiles_string, measurement) VALUES
  ('CN1C(=O)[C@@]2(CCS(=O)(=O)c3ccccc3)N=C(c3ccc(OCCCO)cc3)O[C@H]2c2ccccc21', '0.0865 (inactive)'),
  ('COc1ccc(CCNC(=O)[C@@]2(Sc3ccc(C)cc3)CC(=O)N(Cc3cc(C(F)(F)F)cc(C(F)(F)F)c3)[C@@H]2c2ccc(CO)cc2I)cc1', '-0.988 (inactive)');

Check the records and state composite z-score for `O=C1O[C@@H](c2ccccc2)[C@@H](c2ccccc2)N2[C@@H](c3ccc(O)cc3)[C@]3(C(=O)Nc4ccc(C#CCCO)cc43)[C@@H](C(=O)Nc3nc4ccccc4s3)[C@H]12` -0.292 (inactive)

----------
- Method notes: mitochondrial membrane potential change in A549 cells, profiling panel, cell-based, JC-1 fluorescence, basal, 24 h, 100 nL (AID 1138);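 note: A549 lung adenocarcinoma cells under basal conditions with no added stimulus; test concentration not given here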
- Condition context: higher = more signal
Please note: YES applies when z-score is 0.5 or greater, and NO applies otherwise.

INSERT INTO assay_data (compound, group) VALUES
  ('COc1c(C)cc(-c2cc3c(c(Cc4ccccc4)n2)[Si](C(C)C)(C(C)C)OC3)cc1C', 'NO'),
  ('COCCOC(=O)N1C(=O)[C@@]2(c3cc(C#Cc4ccc(OC)cc4)ccc31)[C@H](C(=O)N1CCCCCCC1)[C@H]1C(=O)O[C@H](c3ccccc3)[C@H](c3ccccc3)N1[C@@H]2c1ccc(O)cc1', 'NO'),
  ('C=C(COC)/C(=C/C[C@@H](OC(=O)c1ccncc1)c1cccc(OCCO)c1)c1cnc2ccccc2c1', 'YES'),
  ('O=C1O[C@@H](c2ccccc2)[C@@H](c2ccccc2)N2[C@@H](c3ccc(O)cc3)[C@]3(C(=O)Nc4ccc(C#CCCO)cc43)[C@@H](C(=O)Nc3nc4ccccc4s3)[C@H]12', 'NO');

Given CC=CC(O)C1C=CC2C(=O)N(c3ccccc3)C(=O)C2N1Nc1ccc([N+](=O)[O-])cc1 (centres undefined) , state whether its z-score is at least 0.5. NO

Given `Cc1ccc(S[C@]2(C(=O)NCC(C)C)CC(=O)N(Cc3ccccc3Cl)[C@@H]2c2ccc(CO)cc2I)cc1` , state whether its z-score is at least 0.5. NO

Given `COCCCNC(=O)[C@@H]1c2ccccc2C(=O)N(Cc2ccccc2C(F)(F)F)[C@H]1c1ccc(CO)cc1` , state whether its z-score is at least 0.5. YES

Given `C=CCNC(=O)[C@H]1[C@@H]2C(=O)O[C@@H](c3ccccc3)[C@@H](c3ccccc3)N2[C@@H](c2ccccc2OCCO)[C@]12C(=O)N(C(=O)OCCOC)c1ccc(C#CC3=CCCCC3)cc12` , state whether its z-score is at least 0.5. NO

----------
- Measured target: Focal adhesion kinase 1 (Homo sapiens)
- Method notes: small-molecule microarray binders of FAK, primary screen, biochemical, 635/667 nm fluorescence, BSA, DTT (AID 1130);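 note: composite of spot emission at 667 nm and signal to noise over triplicate slides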
- Condition context: PTK2 binding, 635 nm fluorescence, higher = more signal
Please note: T applies when composite z-score is 0.3 or greater, and F applies otherwise.

Example entries and their recorded answers appear below.
INSERT INTO assay_data (compound, group) VALUES
  ('CN(C)C(=O)[C@]1(CCC(=O)OC(C)(C)C)N=C(c2ccc(OCCCO)cc2)O[C@@H]1c1ccccc1', 'T'),
  ('C=C(/C(=C/C[C@@H](OC(=O)c1ccncc1)c1ccccc1OCCO)c1cc(C(=O)OC)ccc1OC)C(C)C', 'T'),
  ('O=C1c2ccccc2[C@](Cc2ccccc2I)(C(=O)NCc2ccccc2)[C@H](c2ccc(CO)cc2)N1C1CCCCC1', 'T'),
  ('CN(C)CCCNC(=O)[C@@H]1c2ccccc2C(=O)N(Cc2ccc(OC(F)(F)F)cc2)[C@H]1c1ccc(CO)cc1', 'F'),
  ('C=CCN1C(=O)[C@]2(CC=C)N=C(c3ccc(OCCCO)cc3)O[C@@H]2c2ccccc21', 'T');

Given `C=CCN1C(=O)[C@@]2(O[C@@H](CCn3cc([C@H](O)c4ccccc4)nn3)[C@H]([Si](C)(C)c3ccc(OC)cc3)[C@H]2C)c2ccccc21` , state whether its composite z-score is at least 0.3. F

Given `C=C[C@@H](C)[C@H](OC(=O)Nc1ccc(SC)cc1)c1ccc(OCCO)cc1` , state whether its composite z-score is at least 0.3. T

Given CCCCN1CC=CC23O[C@@H]4/C=C\CCC(C)OC(=O)C4[C@H]2C(=O)N(CCCCCCO)[C@@H]3C1=O (stereo partly drawn) , state whether its composite z-score is at least 0.3. F

----------
- Method notes: small-molecule microarray binders of probe aDKK1, primary screen, biochemical, biotinylated probe, 635/667 nm fluorescence (AID 1099);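 note: score merges 667nm spot fluorescence with signal to noise across triplicate slides; reference of the scale not given here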
- Condition context: higher = more signal
The entries below are paired with their reported composite z-score.
Reply briefly: the number, and no unit.

Check the records and state composite z-score for `O=C(O)[C@H]1C[C@H]2C(=O)N3CCC[C@H]3C(=O)N2[C@H]1c1cccc(OCCO)c1` 0.0484

Check the records and state composite z-score for `C=CCOC(=O)[C@H]1[C@@H]2C(=O)O[C@@H](c3ccccc3)[C@@H](c3ccccc3)N2[C@@H](c2ccc(OCCOC(=O)[C@H]3C[C@H]4C(=O)N[C@@H](Cc5ccccc5)C(=O)N4[C@H]3c3ccc(O)cc3)cc2)[C@]12C(=O)Nc1ccc(I)cc12` -0.188

Check the records and state composite z-score for `CC(C)NC(=O)[C@@]1(C)c2ccccc2C(=O)N(C(C)C)[C@H]1c1ccc(CO)cc1` -0.123

Check the records and state composite z-score for `C=CCN1Cc2ccccc2C[C@@]2(N=C(c3ccc(OCCCO)cc3)O[C@H]2c2ccccc2)C1=O` 0.189

Check the records and state composite z-score for `COCCCNC(=O)[C@@]1(Sc2ccc(C)cc2)CC(=O)N(C2Cc3ccccc3C2)[C@@H]1c1ccc(CO)cc1I` 0.59

Check the records and state composite z-score for `[N-]=[N+]=Nc1ccccc1[C@@H]1OC(c2ccc(OCCCO)cc2)=N[C@]1(CCS(=O)(=O)c1ccccc1)C(=O)NCCN1CCOCC1` 1.1

Check the records and state composite z-score for `O=C1O[C@@H](c2ccccc2)[C@@H](c2ccccc2)N2[C@@H](c3ccccc3OCCO)[C@]3(C(=O)Nc4ccc(C#CCCO)cc43)[C@@H](C(=O)Nc3nc4ccccc4s3)[C@H]12` 0.74

----------
The entries below are paired with their reported z-score.
- Measured target: NADPH oxidase 4 (Homo sapiens) (UniProt Q9NPH5)
- Sequence (Q9NPH5 whole entry, looked up): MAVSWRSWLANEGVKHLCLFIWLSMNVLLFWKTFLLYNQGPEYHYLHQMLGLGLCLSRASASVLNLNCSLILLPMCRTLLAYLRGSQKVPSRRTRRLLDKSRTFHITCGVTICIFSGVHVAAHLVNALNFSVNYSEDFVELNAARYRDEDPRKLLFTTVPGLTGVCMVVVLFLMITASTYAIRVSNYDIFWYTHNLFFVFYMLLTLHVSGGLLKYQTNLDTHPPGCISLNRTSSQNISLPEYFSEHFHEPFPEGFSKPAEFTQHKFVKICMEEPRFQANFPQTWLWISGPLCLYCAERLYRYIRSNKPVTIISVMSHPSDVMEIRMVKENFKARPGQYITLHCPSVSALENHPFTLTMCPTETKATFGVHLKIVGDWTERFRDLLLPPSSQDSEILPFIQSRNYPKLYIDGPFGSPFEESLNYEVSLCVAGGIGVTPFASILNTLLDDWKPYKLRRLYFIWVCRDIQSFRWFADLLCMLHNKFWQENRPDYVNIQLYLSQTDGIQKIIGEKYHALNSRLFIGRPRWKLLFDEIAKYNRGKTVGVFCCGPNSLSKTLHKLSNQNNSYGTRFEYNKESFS
- Method notes: NOX4-dependent H2O2 signal modulators, primary screen, NOX inhibitor project, cell-based, HEK293-NOX4, tetracycline-induced, Amplex Red fluorescence (AID 1160)
- Condition context: 45 min, higher = more signal, called active from +8 up or from −8 down
Reply briefly: the number, and no unit.

Look up and report z-score, with NADPH oxidase 4 (Homo sapiens) (UniProt Q9NPH5) as system, for `C=CCOC(=O)[C@@H]1[C@H]2C(=O)O[C@H](c3ccccc3)[C@H](c3ccccc3)N2[C@H](c2ccc(OCCOC(=O)[C@H]3C[C@H]4C(=O)N[C@@H](CC(C)C)C(=O)N4[C@H]3c3ccc(O)cc3)cc2)[C@@]12C(=O)Nc1ccc(I)cc12` 1.66

Look up and report z-score, with NADPH oxidase 4 (Homo sapiens) (UniProt Q9NPH5) as system, for C=CCC(OC(C)=O)[C@@H]1[C@@H](N(Cc2ccc(-c3ccccc3)cc2)C(=O)c2cccc3ccccc23)c2cc(OCCCO)ccc2N1C(=O)Cc1ccc2ccccc2c1 (stereo partly drawn) -0.22

Look up and report z-score, with NADPH oxidase 4 (Homo sapiens) (UniProt Q9NPH5) as system, for CC(C)N1CC=CC23O[C@@H]4C=CCCOC(=O)C4[C@H]2C(=O)N(CCO)[C@@H]3C1=O (stereo partly drawn) 0.509
